biological target: T1, human neonatal Fc receptor (hFcRn) (human, UniProt P55899 24-290; P61769 21-119); experiment: phage ELISA pH 7.4;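 further: higher score means stronger binding and above about 3 to 5 exceeds background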
T1 construct: Biotinylated in the ELISA, Octet and yeast assays; also called human FcRn; huFcRn
T1 sequence (P55899 24-290 limits assumed, chain 1 of 2): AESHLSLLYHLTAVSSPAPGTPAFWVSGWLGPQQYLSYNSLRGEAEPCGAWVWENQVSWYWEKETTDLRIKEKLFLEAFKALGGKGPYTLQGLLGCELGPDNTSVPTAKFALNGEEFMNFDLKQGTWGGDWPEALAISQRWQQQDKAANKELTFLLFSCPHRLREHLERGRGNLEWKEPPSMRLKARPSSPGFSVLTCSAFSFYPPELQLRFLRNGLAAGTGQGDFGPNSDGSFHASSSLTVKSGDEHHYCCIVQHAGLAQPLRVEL
T1 sequence (P61769 21-119 limits assumed, chain 2 of 2): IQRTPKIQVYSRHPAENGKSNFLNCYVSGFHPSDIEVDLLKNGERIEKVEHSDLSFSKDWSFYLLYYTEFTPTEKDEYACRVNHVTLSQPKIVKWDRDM
measuredEndpoint: ELISA score

{"binder": "L5 isolate with insertion SEQ ID NO: 398 (other) EPKSCDKTHTCPPCPAPELLGGPSVFLFPPKPKDTLMISRTPEVTCVVVDVSHEDPEVKFNWYVDGVEVHNAKTKPREEQYNSTYRVVSVLTVLHQDWLNGKEYKCKVSNKALPAPIEKTISKAKGQPREPQVYTLPPSRDELTKNQVSLTCLVKGFYPSDIAVEWESNGGCQLGSMHCGGGQPENNYKTTPPVLDSDGSFFLYSKLTVDKSRWQQGNVFSCSVMHEALHNHYTQKSLSLSPGK", "measuredEndpoint": "ELISA score", "reportedMeasurement": 0.4}
{"binder": "L5 isolate with insertion SEQ ID NO: 482 (other) EPKSCDKTHTCPPCPAPELLGGPSVFLFPPKPKDTLMISRTPEVTCVVVDVSHEDPEVKFNWYVDGVEVHNAKTKPREEQYNSTYRVVSVLTVLHQDWLNGKEYKCKVSNKALPAPIEKTISKAKGQPREPQVYTLPPSRDELTKNQVSLTCLVKGFYPSDIAVEWESNGGCMGWWHLCGGGQPENNYKTTPPVLDSDGSFFLYSKLTVDKSRWQQGNVFSCSVMHEALHNHYTQKSLSLSPGK", "measuredEndpoint": "ELISA score", "reportedMeasurement": 1.2}
{"binder": "L5 isolate with insertion SEQ ID NO: 493 (other) EPKSCDKTHTCPPCPAPELLGGPSVFLFPPKPKDTLMISRTPEVTCVVVDVSHEDPEVKFNWYVDGVEVHNAKTKPREEQYNSTYRVVSVLTVLHQDWLNGKEYKCKVSNKALPAPIEKTISKAKGQPREPQVYTLPPSRDELTKNQVSLTCLVKGFYPSDIAVEWESNGGCLLPNMFCGGGQPENNYKTTPPVLDSDGSFFLYSKLTVDKSRWQQGNVFSCSVMHEALHNHYTQKSLSLSPGK", "measuredEndpoint": "ELISA score", "reportedMeasurement": 1}
{"binder": "L5 isolate with insertion SEQ ID NO: 484 (other) EPKSCDKTHTCPPCPAPELLGGPSVFLFPPKPKDTLMISRTPEVTCVVVDVSHEDPEVKFNWYVDGVEVHNAKTKPREEQYNSTYRVVSVLTVLHQDWLNGKEYKCKVSNKALPAPIEKTISKAKGQPREPQVYTLPPSRDELTKNQVSLTCLVKGFYPSDIAVEWESNGGCYASPHECGGGQPENNYKTTPPVLDSDGSFFLYSKLTVDKSRWQQGNVFSCSVMHEALHNHYTQKSLSLSPGK", "measuredEndpoint": "ELISA score", "reportedMeasurement": 1}
{"binder": "L6B isolate with insertion SEQ ID NO: 440 (other) EPKSCDKTHTCPPCPAPELLGGPSVFLFPPKPKDTLMISRTPEVTCVVVDVSHEDPEVKFNWYVDGVEVHNAKTKPREEQYNSTYRVVSVLTVLHQDWLNGKEYKCKVSNKALPAPIEKTISKAKGQPREPQVYTLPPSRDELGGCNATLSGYLCGGTKNQVSLTCLVKGFYPSDIAVEWESNGQPENNYKTTPPVLDSDGSFFLYSKLTVDKSRWQQGNVFSCSVMHEALHNHYTQKSLSLSPGK", "measuredEndpoint": "ELISA score", "reportedMeasurement": 0.6}
